- Test system: 6.0 (DMSO control at this site: 1-bp insertion 0.296, MH deletion 0.491, edited 0.076) ACGATTGGCCCCCACAAAGCGGACCAGCCAGCGTGCTAGGGAATAAGGCCAACTTGCACCC
- Protocol Description: fraction of edited reads among all mapped reads; higher = more Cas9 editing
- Condition Set: mESC; 2uM; 72 h treatment, harvest day 5
Criterion: fraction of edited reads among all mapped reads meeting or surpassing 0.06. Met: fulfilled. Not met: not fulfilled.

{"columns": ["Compound", "Assigned Class"],
 "data": [
  ["O=c1c(-c2ccc(O)cc2)coc2cc(O)cc(O)c12", "fulfilled"],
  ["O=c1cc(N2CCOCC2)oc2c(-c3ccc4c(c3)OCCO4)csc12", "not fulfilled"],
  ["Cc1cc(C)nc(SCC(=O)Nc2ncc(Cc3cccc4ccccc34)s2)n1", "fulfilled"],
  ["O=C1Cc2c([nH]c3ccc(Br)cc23)-c2ccccc2N1", "fulfilled"],
  ["C[C@@H]1CN(CC(=O)Nc2ccc3c(c2)Cc2cccc(-c4cc(=O)cc(N5CCOCC5)o4)c2S3)C[C@H](C)O1", "not fulfilled"],
  ["CCCCOc1c(C(=O)c2c(F)cc(C)cc2F)c[nH]c2nncc1-2", "fulfilled"],
  ["CCN1CCN(CC(=O)Nc2ccc(-c3cccc4c(=O)cc(N5CCOCC5)oc34)c3sc4ccccc4c23)CC1", "not fulfilled"],
  ["CNc1ccc([N+](=O)[O-])c(Nc2ccc3[nH]ncc3c2)n1", "fulfilled"],
  ["S=c1nc[nH]c2nc[nH]c12 [6-Mercaptopurine (6-MP) Monohydrate]", "fulfilled"],
  ["S=c1[nH]cnc2nc[nH]c12", "fulfilled"]
]}

====

The entries below are paired with their reported fraction of GFP+ cells.
- System: mESC LDLR-Dup GFP reporter (SpCas9 MH-deletion repair)
- Protocol Description: fraction of GFP+ cells relative to DMSO control (fold change); higher = more MH-deletion repair to in-frame LDLR (or more editing)
- Condition Set: 2 µM; 7 days post-transfection
Where a name gives a salt, the structure may show the parent alone.

{"columns": ["Molecule", "fraction of GFP+ cells"],
 "data": [
  ["O=S(=O)(N=Cc1c(O)ccc2ccccc12)c1cccs1", 1.15],
  ["CC(C)OC(=O)[C@H](C)N[P@](=O)(OC[C@H]1O[C@@H](n2ccc(=O)[nH]c2=O)[C@](C)(F)[C@@H]1O)Oc1ccccc1 [Sofosbuvir (PSI-7977, GS-7977)]", 1.03],
  ["C/C(=C\\C(=O)OCCCCCCCCC(=O)O)C[C@@H]1OC[C@H](C[C@@H]2O[C@H]2[C@@H](C)[C@H](C)O)[C@@H](O)[C@H]1O [Mupirocin]", 1.12],
  ["C=C(C)[C@@H]1CC[C@]2(C(=O)O)CC[C@]3(C)[C@H](CC[C@@H]4[C@@]5(C)CC[C@H](O)C(C)(C)[C@@H]5CC[C@]43C)[C@@H]12 [Betulinic acid]", 0.997],
  ["Nc1nc(F)nc2c1ncn2[C@@H]1O[C@H](COP(=O)(O)O)[C@@H](O)[C@@H]1O [Fludarabine Phosphate]", 0.855],
  ["O=c1cc(N2CCOCC2)oc2c(-c3cccc4c3sc3ccccc34)cccc12", 0.732],
  ["CN(N=O)C(=O)NC1C(O)OC(CO)C(O)C1O (stereo unspecified) [Streptozotocin (STZ)]", 2.1],
  ["COc1c(N2CCNC(C)C2)c(F)cc2c(=O)c(C(=O)O)cn(C3CC3)c12 (stereo unspecified) [Gatifloxacin]", 0.995],
  ["CNNCc1ccc(C(=O)NC(C)C)cc1 [Procarbazine HCl]", 1.04],
  ["Cc1cc(O)c2c(c1)C(=O)c1cc(O)cc(O)c1C2=O [Emodin]", 1.12],
  ["C=C1CC[C@H](O)C/C1=C/C=C1\\CCC[C@]2(C)[C@@H]([C@H](C)/C=C/[C@H](C)C(C)C)CC[C@@H]12 [Vitamin D2]", 1.43],
  ["C[C@@H]1CN(CC(=O)Nc2ccc3c(c2)Cc2cccc(-c4cc(=O)cc(N5CCOCC5)o4)c2S3)C[C@H](C)O1", 0.516],
  ["C=C1C(=O)O[C@H]2[C@H]1CC/C(C)=C/CC[C@@]1(C)O[C@@H]21 [(-)-Parthenolide]", 0.606],
  ["C[C@H]1COc2c(N3CCN(C)CC3)c(F)cc3c(=O)c(C(=O)O)cn1c23 [Levofloxacin]", 0.954],
  ["CN1CCN(Cc2ccc(NC(=O)Nc3ccc(Oc4ccnc(N)n4)cc3)cc2C(F)(F)F)CC1", 0.335],
  ["CN1CCN(c2ccc(Nc3ncc4cc(C#N)c(=O)n(C5CCCC5)c4n3)cc2)CC1", 0.705]
]}
